Molecular target: Parkinson's disease protein 7 (PARK7/DJ1) (human, UniProt Q99497)
Sequence (Q99497 whole entry, looked up): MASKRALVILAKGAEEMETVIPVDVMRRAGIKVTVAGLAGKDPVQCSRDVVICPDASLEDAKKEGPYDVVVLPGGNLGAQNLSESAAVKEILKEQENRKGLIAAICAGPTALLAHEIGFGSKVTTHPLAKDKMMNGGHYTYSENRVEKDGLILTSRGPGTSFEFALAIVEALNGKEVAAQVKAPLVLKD
Assay: primary screen, percent inhibition; higher = more effect of the substance
Details: 100 µM
Hit rate of the full screen: of about 7,900 compounds, about 400 (5.1%) showed an effect of 50% or more. Many of the other results were omitted from the sample, so strong results are more common in it than they were.
ENDPOINT: Inhibition % (%)

> print(dat)
                                    compound  number
 1                     O=S(=O)(F)Cc1ccccc1Cl    7.95
 2                   O=C(CCl)Nc1cccc2ncccc12    40.3
 3                     COc1ccc2nc(C#N)ccc2c1    3.18
 4  Cc1ccc(C#N)nc1N1CCCOC(C)C1 (centres unmarked)    42.8
 5         O=C(CCl)Nc1ccc(S(=O)(=O)C(F)F)cc1    65.8
 6       COc1cc(C)c(C)cc1S(=O)(=O)n1cnc(C)c1    6.69
 7                      N#Cc1cc(N)c2ccccc2n1    10.9
 8         COc1cc(CO)ccc1B1OC(C)(C)C(C)(C)O1    4.39
 9                 CC1(C)OB(c2ccncc2)OC1(C)C    4.41
10  CCC(CSC)Nc1ccc(C#N)nc1 (centres unmarked)    11.4
11           CN(CC(=O)Nc1ccc(Cl)cc1)C(=O)CCl    75.9
12              COC1CCN(c2nc(C#N)c(Cl)s2)CC1    7.16
13       CN(CC(=O)Nc1ccccc1C(F)(F)F)C(=O)CCl    17.5
14                COC1CCN(c2nc(C#N)ccc2C)CC1    71.3
15            C=CC(=O)NC(NC(=O)C=C)c1ccccc1F    14.4
16             CS(=O)(=O)c1ccc(NC(=O)CCl)cc1    51.8
17             CN(CC(=O)Nc1ccccc1Cl)C(=O)CCl    42.3
18            Cc1ccc(NC(=O)CCl)cc1S(N)(=O)=O    17.6
19  Cc1nn(C)c(Cl)c1C=CC(=O)N1CCNC(C)C1.Cl (centres unmarked)      11
20             CS(=O)(=O)c1cccc(NC(=O)CCl)c1    7.34

====

In this section, each of the molecules is paired with its reported Inhibition %.
Molecular target: Parkinson's disease protein 7 (PARK7/DJ1) (human)
Assay: primary screen, percent inhibition; higher = more effect of the substance
Settings: 100 µM
Out of some 7,900 compounds screened, about 400 (5.1%) showed an effect of 50% or more. The full list was thinned out, with strong results kept by preference.
ENDPOINT: Inhibition % (%)

> print(dat)
                                   molecule  unit  number
1  Cn1cc(S(=O)(=O)Oc2cccc(F)c2)c(=O)n(C)c1=O     %     5.3
2  O=C(O)CC1OB(O)c2ccccc21 (centres unmarked)     %   0.686
3          CCOc1ccncc1S(=O)(=O)Oc1cccc(F)c1     %    58.4
4   CC(=O)N1CCN(C(=O)C=Cc2c(C)nn(C)c2Cl)CC1     %    8.55
5  CC1CC(Sc2ccccn2)C(=O)O1 (centres unmarked)     %    5.37
6            NC(=O)CCN(C(=O)CCl)c1ccc(F)cc1     %    37.5
7                  N#CCCN(C(=O)CCl)c1ccccc1     %    14.9
8                 CN(C)CCc1ccc(B(O)O)cc1.Cl     %    2.57

====

Biological target: Parkinson's disease protein 7 (PARK7/DJ1) (human)
Test: primary screen, percent inhibition; higher = more effect of the substance
Details: 100 µM
Among all 7,900 compounds or so, about 400 (5.1%) showed an effect of 50% or more. This is one part of a sample in which strong results are shown more often than they occur.
Returns the class for an entry based on its Inhibition %. Class ranges: lowest = under 8%, middle = from 8% up to 30%, highest = 30% and over

> print(dat)
                                    compound      cat
 1                CN(Cc1cccc(F)c1)S(=O)(=O)F   middle
 2                  C=CC(=O)Nc1cn(C)nc1C1CC1   middle
 3                 C=CC(=O)N1CCc2cc(F)ccc2C1   middle
 4                       Cc1noc(C)c1C(=O)CCl   middle
 5                    O=S(=O)(F)c1cccc(CO)c1  highest
 6  O=C1OCCC1n1nnc(-c2ccc(F)cc2)n1 (stereo not drawn)   lowest
 7                   N#CC=C1NC(=O)c2ccccc2S1   middle
 8                    O=C(CCl)COc1ccc(Cl)cc1  highest
 9                    C=CC(=O)N1CCOc2ccccc21   middle
10      Cc1cc(C(=O)Cn2cnc(C#N)n2)c(C)n1C1CC1   middle
11  O=C(c1cccc(S(=O)(=O)F)c1)N1CCCn2ncc(C3CC3)c21   lowest
12     CCOc1cc(C)c(Cl)cc1S(=O)(=O)n1cnc(C)c1   lowest
13        Cc1cccc(N2CCN(C(=O)n3ccnc3)CC2)c1C   lowest
14             O=C(CCl)c1ccc(F)c(C(=O)CCl)c1  highest
15         CC1(C)OB(CC2CC3(CCOCC3)C2)OC1(C)C   lowest
16  C=CC(=O)NC1CCOC2(CCSC2)C1 (stereo not drawn)   lowest
17            O=S(=O)(F)c1ccc(S(=O)(=O)F)cc1   lowest
18        C=CC(=O)N1CCCc2[nH]c3ccc(F)cc3c2C1  highest
19                      Cc1cc(C(=O)CCl)ccc1F   middle
20             Cc1cc(C(=O)CCl)c(C)n1Cc1ccco1  highest
21                   O=C(Oc1ccccc1)N1CC(O)C1   middle
22  CS(=O)C1(CNC(=O)c2cccc(S(=O)(=O)F)c2)CCC1 (stereo not drawn)  highest
23                  CN(CCOc1ccccc1F)C(=O)CCl  highest
24                 C=CC(=O)Nc1cccc(C(=O)O)c1   lowest
25       C=CC(=O)N1CCCN(C(=O)c2cccc(F)c2)CC1   lowest
26  N#CC1COCCN1C(=O)c1cccc(S(=O)(=O)F)c1 (stereo not drawn)  highest
27                      COc1cc(OC)c(OC)cc1CS  highest
28     C=CC(=O)N1CCN(C(=O)CN2C(=O)CCC2=O)CC1   lowest
29                 N#Cc1nccn1Cc1cc(F)cc(F)c1   lowest
30                     Nc1cncc(S(=O)(=O)F)c1  highest
31                          Cc1nonc1C(=O)CCl  highest
32             CN(Cc1cc(Cl)cc(Cl)c1)C(=O)CCl  highest
33            Cc1cc(C(=O)CCl)c(C)n1CC(F)(F)F   lowest
34                  O=C(CCl)NCCOc1ccc(Cl)cc1   middle
35  C=CC(=O)N1CC23CCCCC2(COC3)C1 (stereo not drawn)   middle
36               CN(CCOc1ccccc1F)c1cccnc1C#N  highest
37  C=CC(=O)N1CCOCC1c1cccc(F)c1 (stereo not drawn)   lowest
38  C=CC(=O)NC1CC(OCC)C12CCCC2 (stereo not drawn)   middle
39  Cc1cc(C(=O)CCl)c(C)n1C1CCS(=O)(=O)C1 (stereo not drawn)  highest
40                N#Cc1ncn(Cc2c(F)cccc2Cl)n1   lowest
41                    Cc1cc(C(=O)CCl)c(C)n1C  highest
42                N#Cc1ccc(N2CCc3sccc3C2)cn1   middle
43  N#Cc1cc(C(=O)NCC2CCc3nccn3C2)c[nH]1 (stereo not drawn)   middle

====

Molecular target: Parkinson's disease protein 7 (PARK7/DJ1) (human)
Experiment: primary screen, percent inhibition; read as competition with a fluorescent probe by fluorescence polarization; higher = more effect of the substance
Details: 100 µM
Description: The screen was conducted using the conditions as described above in 1536-well plates (Corning 3724) with a reaction volume of 8 μL per well. The compound library containing 7887 covalent fragments was purchased at Enamine Ltd. and received as 100 mM DMSO stocks in 384 well LDV Echo plates (Labcyte LP-0200). Stock solutions of 0.26 μM PARK7 and 80 nM JYQ-107 were prepared. […] After 2 h incubation, the FP signal was recorded on a BMG Labtech PHERAstar plate reader (λex/em 480/520 nm). […]
Among all 7,900 compounds or so, about 400 (5.1%) showed an effect of 50% or more. This excerpt belongs to a sample that is enriched for strong results.
ENDPOINT: Inhibition % (%)

> print(dat)
                                    compound                              assay.target  number
 1             Cl.O=C(CCl)N1CCN(c2cnccn2)CC1  Parkinson's disease protein 7 (PARK7/DJ1) (human)    55.6
 2                CN(C)C=CC(=O)c1cc2ccccc2o1  Parkinson's disease protein 7 (PARK7/DJ1) (human)   0.589
 3           Cc1ccc(F)c(N(C#N)Cc2nnc(C)o2)c1  Parkinson's disease protein 7 (PARK7/DJ1) (human)      69
 4               O=C(CCl)Nc1cc(Cl)ccc1C(=O)O  Parkinson's disease protein 7 (PARK7/DJ1) (human)    47.9
 5                        N#Cc1c(N)nc2n1CCS2  Parkinson's disease protein 7 (PARK7/DJ1) (human)    4.18
 6  CC(c1ccc(Cl)cc1)N(C)C(=O)CCl (centres unmarked)  Parkinson's disease protein 7 (PARK7/DJ1) (human)      98
 7          Cc1ccc(Sc2ccc(NC(=O)CCl)cc2)cc1C  Parkinson's disease protein 7 (PARK7/DJ1) (human)    34.5
 8                   C=CC(=O)NCc1coc2ccccc12  Parkinson's disease protein 7 (PARK7/DJ1) (human)    7.72
 9  COc1cc(NC(=O)OC(C)(C)C)ccc1B1OC(C)(C)C(C)(C)O1  Parkinson's disease protein 7 (PARK7/DJ1) (human)    14.5
10               O=C(CCl)Nc1ccc(Cl)cc1C(=O)O  Parkinson's disease protein 7 (PARK7/DJ1) (human)    52.4
11           C=CC(=O)N1CCN(c2c(F)cccc2OC)CC1  Parkinson's disease protein 7 (PARK7/DJ1) (human)      12
12   CC(NC(=O)CCl)c1cccs1 (centres unmarked)  Parkinson's disease protein 7 (PARK7/DJ1) (human)    9.37
13          Cc1nnc(CN(C#N)c2ccc(F)c(Cl)c2)o1  Parkinson's disease protein 7 (PARK7/DJ1) (human)    5.26
14             C#CC(=O)Nc1cc2ccccc2cc1C(=O)O  Parkinson's disease protein 7 (PARK7/DJ1) (human)    29.8
15       Cc1nn(C)c(NS(=O)(=O)C=Cc2ccccc2)c1C  Parkinson's disease protein 7 (PARK7/DJ1) (human)    11.2
16  CC(NC(=O)CCl)c1ccc(Cl)cc1 (centres unmarked)  Parkinson's disease protein 7 (PARK7/DJ1) (human)    6.77
17               O=C(CCl)Nc1ccc(Br)cc1C(=O)O  Parkinson's disease protein 7 (PARK7/DJ1) (human)    46.1

Origin of the recorded values: paper PMC9574860
